System: MS2 coat protein
Experiment: apparent KD of MS2 coat protein; designed switch direction (-1 OFF switch, 1 ON switch): -1; higher = weaker reporter binding
Settings: input ligand: FMN 200 uM
Returns one of Criterion met or Criterion not met; Criterion met when apparent KD of MS2 coat protein is >= 40 nM.

GCCUUAUCUGUCAGGAUAUACAAUAAAAUUUUUUUGUAGAAGGGACAUGAGGAUCACCCAUGUACAUUACAUUG [alecazam22] (Eterna round: R97, puzzle: Brourd's mod of Exclusion 4) = Criterion met
ACAUGAGGAUCACCCAUGUCAGGCGGGUCCACUCCGGCUGUUGAGGAUAUAGUCCGGUAUCCGCGCUAGAAGGUGAGGGCCGGC [Aenatbe mod 24] (Eterna round: R96, puzzle: Exclusion NG 3) = Criterion not met
GGAUAUAAGGAAGGAUAUGAGCGCAACUGACGAUCAGAAGGUCCACAUGAGGAUCACCCAUGUGAUCUAUCAAUAUUAUACAUG [Prohibition 94 - Jieux - Exclusion NG 1] (Eterna round: R96, puzzle: Exclusion NG 1) = Criterion met
GGCAUACCACAAGCUUUUUACAUGAGGAUCACCCAUGUGGUUUUUAGUCUUAUCCCGGGCCCGAUAUCGGGCCCGGG [-33.9, -54.7, A 19%] (Eterna round: R97, puzzle: Sensor, turn-off variant 1) = Criterion not met
GCUUCUGGGCAAGGAUAUCCUGCGCUGUUCUGGUUCGUGUCUGUCACAUGAGGAUCACCCAUGUGGGAGAAGGUGCCUGUGGCG [Design 67] (Eterna round: R96, puzzle: Exclusion NG 2) = Criterion not met

====

As shown below, each of these sequences has a reported apparent KD of MS2 coat protein value.
Tested on: MS2 coat protein
Assay: apparent KD of MS2 coat protein; designed switch direction (-1 OFF switch, 1 ON switch): -1; higher = weaker reporter binding
Conditions: input ligand: none
measured_attribute: apparent KD of MS2 coat protein (nM)

CACCAGAGAGGAUAUGCACUCAUGGCACCGAAAGGGAGGCGACAUGAGGAUCACCCAUGUAGAAGGCUCAGCAG [Eternabot (Original) Solution 16] (Eterna round: R97, puzzle: Exclusion 2) = 70.6
GAUCCGUUAGGAUAUCGUGAGGACAGCUAGUCUUAUUAACACGAGAAGGAACAUGAGGAUCACCCAUGUGGUAA [Eternabot (L1) Solution 14] (Eterna round: R97, puzzle: Exclusion 4) = 62.3
GCGCUGUGAGGAUAUUAGUAGUAGAUAAAAUAAACUAUUACUGAGAAGGCACAUGAGGAUCACCCAUGUUGCGC [Eli x4 4.04] (Eterna round: R97, puzzle: Exclusion 4) = 19.6
AUAAUACAUGUAGGAUAUCUGCACGUUUAGUGCAGAGAAGGACAUGAGGAUCACCCAUGUAAUUAAGAUCAAUUAUUAAAUUAU [ENG1/3-D2] (Eterna round: R96, puzzle: Exclusion NG 1) = 66.2
GUCCUCAUGACAUGAGGAUCACCCAUGUAUUAUUUGUUAACUGAGGAUAUACUCUUAUUUUUUAUGUAGAAGGCAGAUUUGUUC [JR_ExcNG3_Sub021] (Eterna round: R96, puzzle: Exclusion NG 3) = 31.2

====

System: K4 kissing-loop RNA reporter;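 note: bound reporter read as fluorescence of individual clusters on recovered sequencing chips by microscopy, with normalized cluster intensities fitted with a binding model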
Test: apparent KD of K4 kissing-loop reporter; higher = weaker reporter binding
Conditions: Eterna round: R107; input ligand: theophylline 20 uM
measured_attribute: apparent KD of K4 kissing-loop reporter (nM)

GGACCUCAGUGAUGUUGAGGUAACACUGAUACCAGCGACUUAAUUCGCCCUUGGCAGCAGUCCACCGAGGUAUCUGAUUAGGUCU [#23 K4 Theophylline A Exclusion] = 287
GCGCGUCAUGUCAGCGGUGACACUGUCGAUACCAGUGCCGUAAGGCGCCCUUGGCAGCGACGUGCUGGAGUGAUGUUCCAGCGUU [#2 Exclusion - Theophylline A Attempt #31 (HarryS)] = 154
UAUCGAGUGAUGUUCGAUGUAGUGCAUUCAGAGGAUAUAGGAUGGGCUAGAAGGCUGAAAAGUGCUUCGAGUGAUGUUCGAAGAU [Exclusion FMN A GF 5] = 57.6
